For each entry below, report its pIC50 value.
test: Inhibition of yeast Alpha-glucosidase using p-nitro phenyl-alpha-D-glucopyranoside as a substrate measured after 20 mins by spectrophotocolorimetric analysis; parameters: species or system Saccharomyces cerevisiae
Field pIC50 (float): negative decimal logarithm of the concentration in molar.

What does the record list as pIC50 for C[C@H]1O[C@H](O[C@H]2[C@H](O)[C@@H](O)[C@@H](O[C@H]3[C@H](O)[C@@H](O)C(O)O[C@@H]3CO)O[C@@H]2CO)[C@H](O)[C@@H](O)[C@@H]1N[C@H]1C=C(CO)[C@@H](O)[C@H](O)[C@H]1O (some centres undefined) [ACARBOSE] ?
3.55

So what's the measured pIC50 for this one? "O=C(/C=C/c1ccc(O)c(O)c1)OC[C@H]1O[C@@H](Oc2cc3oc(-c4ccc(O)c(O)c4)c(O)c(=O)c3c(O)c2O)[C@H](O)[C@@H](O)[C@@H]1O"
6.10

Request the reported pIC50 associated with COc1cc2c(cc1C(C)OC)C=CC(C)(C)O2 (centres undefined)
3.39

Fill in the blank: the reported pIC50 of "O=C(/C=C/c1ccc(O)c(O)c1)OC[C@H]1O[C@@H](Oc2cc3oc(-c4ccc(O)cc4)c(O)c(=O)c3c(O)c2O)[C@H](O)[C@@H](O)[C@@H]1O" is ____.
5.16

Entry COc1cc2c(cc1C(C)O)C=CC(C)(C)O2 (centres undefined) : reported pIC50 = ?
3.17

If you can, please state the reported pIC50 value of "O=c1c(O)c(-c2ccc(O)c(O)c2)oc2cc(O[C@@H]3O[C@H](CO)[C@@H](O)[C@H](O)[C@H]3O)c(O)c(O)c12" .
3.40

Need pIC50 of "CC(=O)c1ccc2c(c1)C=CC(C)(C)O2" , thanks.
3.34

Please look up its pIC50: "C/C=C(/C)C(=O)O[C@@H](c1cc(C(C)=O)ccc1O)[C@H]1OC1(C)C"
3.54

Can you look up the measured pIC50 of COc1cc2c(cc1C(C)=O)C=CC(C)(C)O2 [ENCECALIN] for me?
3.36
